# target_desc: FLT3-ITD (Homo sapiens, UniProt P36888)
# procedure_summary: ADP Glo kinase assay, FLT3-ITD
# condition_set: Km ATP 100 μM, read-out: Enzymatic inhibition, Ki, FLT3-ITD
For each of the compounds below, state its log10(Ki).
A difference of one corresponds to tenfold Ki; all values are log10 with Ki in nM.

CC(=O)N1CCN(c2ccc(Nc3nccc(-c4cnc5ccc(-c6ccccc6)cn45)n3)cn2)CC1 = 2.65
CC(C)N1CCN(c2ccc(Nc3nccc(-c4cnc5ccc(-c6ccccc6)cn45)n3)cn2)CC1 = 1.08
CC(C)N1CCN(c2ccc(Nc3nccc(-c4cnc5ccc(-c6cncnc6)cn45)n3)cn2)CC1 = 1.85
CN1CCN(c2ccc(Nc3nccc(-c4cnc5ccc(-c6cnc(N)nc6)cn45)n3)cn2)CC1 = 1.36
Cc1cnc(Nc2ccc(N3CCNCC3)nc2)nc1-c1cnc2ccccn12 = 0.78
CCN1CCN(Cc2ccc(Nc3nccc(-c4cnc5ccc(-c6ccccc6)cn45)n3)cn2)CC1 = 1.78

Please give log10(Ki) for each item listed below.
1. CC(C)N1CCN(c2ccc(Nc3nccc(-c4cnc5ccc(-c6ccncc6)cn45)n3)cn2)CC1
2. CCS(=O)(=O)N1CCN(c2ccc(Nc3nccc(-c4cnc5ccc(-c6ccccc6)cn45)n3)cn2)CC1
3. COc1cc(F)cc(-c2ccc3ncc(-c4ccnc(Nc5ccc(N6CCN(C)CC6)nc5)n4)n3c2)c1

Result:
1. 1.04
2. 2.15
3. 0.78

Please give log10(Ki) for each item listed below.
1. CN1CCN(c2ccc(Nc3nccc(-c4cnc5ccc(-c6cnn(C)c6)cn45)n3)cn2)CC1
2. CS(=O)(=O)N1CCN(c2ccc(Nc3nccc(-c4cnc5ccc(-c6cncnc6)cn45)n3)cn2)CC1
3. CN(C)c1ccc(Nc2nccc(-c3cnc4ccc(-c5ccc(F)nc5)cn34)n2)cn1

Result:
1: 1.18; 2: 3.16; 3: 1.79

* * *

# target_desc: CDK2/CyclinA2 (Homo sapiens)
# procedure_summary: ADP Glo kinase assay, CDK2/CyclinA2
# condition_set: Km ATP, read-out: Enzymatic inhibition, Ki, CDK2 A
# note: exactly 70 nM is not below, so it is Not met; use Met for Ki strictly under it

Request: Here's an entry: Cc1cnc(Nc2ccc(N3CCOCC3)nc2)nc1-c1cnc2ccccn12 [Compound 14] . Is its Ki below 70 nM?
Result: Met

Request: Here's an entry: Brc1ccc2ncc(-c3ccnc(Nc4ccc(N5CCNCC5)nc4)n3)n2c1 [Compound 42] . Is its Ki below 70 nM?
Result: Met

Request: Here's an entry: CN(C)c1ccc(Nc2nccc(-c3cnc4ccc(C5=CCNCC5)cn34)n2)cn1 [Compound 69] . Is its Ki below 70 nM?
Result: Not met

Request: Here's an entry: CN1CCN(c2ccc(Nc3nccc(-c4cnc5ccc(Cl)cn45)n3)cn2)CC1 [Compound 22] . Is its Ki below 70 nM?
Result: Met

Request: Here's an entry: CN1CCN(c2ccc(Nc3nccc(-c4cnc5ccc(-c6cncnc6)cn45)n3)cn2)CC1 [Compound 8] . Is its Ki below 70 nM?
Result: Not met

Request: Here's an entry: CN1CCN(c2ccc(Nc3nccc(-c4cnc5ccc(-c6ccccc6)cn45)n3)cn2)CC1 [Compound 6] . Is its Ki below 70 nM?
Result: Not met

Request: Here's an entry: CC(C)N1CCN(c2ccc(Nc3nccc(-c4cnc5ccc(-c6ccccc6)cn45)n3)cn2)CC1 [Compound 39] . Is its Ki below 70 nM?
Result: Not met

Request: Here's an entry: CS(=O)(=O)N1CCN(c2ccc(Nc3nccc(-c4cnc5ccc(-c6ccncc6)cn45)n3)cn2)CC1 [Compound 18] . Is its Ki below 70 nM?
Result: Not met

Request: Here's an entry: CC(C)N1CCN(c2ccc(Nc3nccc(-c4cnc5ccc(-c6ccncc6)cn45)n3)cn2)CC1 [Compound 40] . Is its Ki below 70 nM?
Result: Not met

Request: Here's an entry: CN1CCN(c2ccc(Nc3nccc(-c4cnc5ccc(-c6cccnc6)cn45)n3)cn2)CC1 [Compound 7] . Is its Ki below 70 nM?
Result: Not met

Request: Here's an entry: COC(=O)c1ccc(Nc2nccc(-c3cnc4ccc(Br)cn34)n2)cn1 [Compound 82] . Is its Ki below 70 nM?
Result: Met

Request: Here's an entry: CC(=O)N1CCN(c2ccc(Nc3nccc(-c4cnc5ccc(-c6cn[nH]c6)cn45)n3)cn2)CC1 [Compound 47] . Is its Ki below 70 nM?
Result: Met

Request: Here's an entry: CN1CCN(c2ccc(Nc3nccc(-c4cnc5ccccn45)n3)cn2)CC1 [Compound 1] . Is its Ki below 70 nM?
Result: Met

Request: Here's an entry: c1ccc(-c2ccc3ncc(-c4ccnc(Nc5ccc(N6CCC6)nc5)n4)n3c2)cc1 [Compound 25] . Is its Ki below 70 nM?
Result: Not met

Request: Here's an entry: CN1CCN(c2ccc(Nc3ncc(F)c(-c4cnc5ccc(-c6ccccc6)cn45)n3)cn2)CC1 [Compound 28] . Is its Ki below 70 nM?
Result: Not met

Request: Here's an entry: CC(=O)N1CCN(c2ccc(Nc3ncc(C)c(-c4cnc5ccccn45)n3)cn2)CC1 [Compound 11] . Is its Ki below 70 nM?
Result: Not met

Request: Here's an entry: Cc1cnc(Nc2ccc(N3CCNCC3)nc2)nc1-c1cnc2ccccn12 [Compound 13] . Is its Ki below 70 nM?
Result: Not met

Request: Here's an entry: Cc1ccc2ncc(-c3ccnc(Nc4ccc(N5CCN(C)CC5)nc4)n3)n2c1 [Compound 35] . Is its Ki below 70 nM?
Result: Met

Request: Here's an entry: CN1CCN(c2ccc(Nc3nccc(-c4cnc5ccc(F)cn45)n3)cn2)CC1 [Compound 12] . Is its Ki below 70 nM?
Result: Not met

Request: Here's an entry: CC(=O)N1CCN(c2ccc(Nc3ncc(F)c(-c4cnc5ccccn45)n3)cn2)CC1 [Compound 10] . Is its Ki below 70 nM?
Result: Met

Request: Here's an entry: CC(C)N1CCN(c2ccc(Nc3nccc(-c4cnc5ccc(-c6ccsc6)cn45)n3)cn2)CC1 [Compound 54] . Is its Ki below 70 nM?
Result: Not met

Request: Here's an entry: CN1CCN(c2ccc(Nc3nccc(-c4cnc5ccc(Br)cn45)n3)cn2)CC1 [Compound 5] . Is its Ki below 70 nM?
Result: Not met

Request: Here's an entry: CN1CCN(c2ccc(Nc3nccc(-c4cnc5ccc(-c6cn[nH]c6)cn45)n3)cn2)CC1 [Compound 24] . Is its Ki below 70 nM?
Result: Met

Request: Here's an entry: Fc1cnc(Nc2ccc(N3CCN(CCN4CCOCC4)CC3)nc2)nc1-c1cnc2ccc(-c3ccccc3)cn12 [Compound 30] . Is its Ki below 70 nM?
Result: Not met

Request: Here's an entry: CCN1CCN(Cc2ccc(Nc3nccc(-c4cnc5ccc(Br)cn45)n3)cn2)CC1 [Compound 79] . Is its Ki below 70 nM?
Result: Met

Request: Here's an entry: Cc1cnc(Nc2ccc(N3CCN(C)CC3)nc2)nc1-c1cnc2ccccn12 [Compound 3] . Is its Ki below 70 nM?
Result: Not met

Source of measurements: patent US20240158391A1
